Data origin, for the record: the supplement of paper PMC6555819

tested on: RARg:RXRa (NR concentration 270 nM, RXRa partner concentration 90 nM); test: PBM binding z-score (relative to random genomic background probes); higher = stronger binding; sequences stand for … in GC…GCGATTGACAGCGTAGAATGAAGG
Quick list: PBM binding z-score per entry.
Form: value (number only, do not type unit).

# annotated cases, reported PBM binding z-score shown
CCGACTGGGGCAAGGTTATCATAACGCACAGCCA	1.03
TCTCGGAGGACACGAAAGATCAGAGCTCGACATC	0.634
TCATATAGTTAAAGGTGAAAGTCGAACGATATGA	1.47

Ask: Look up PBM binding z-score of `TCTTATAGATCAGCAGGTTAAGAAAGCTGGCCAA` and report it.
Reply: 0.0544

Ask: Look up PBM binding z-score of `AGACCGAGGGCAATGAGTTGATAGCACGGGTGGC` and report it.
Reply: 0.934

Ask: Look up PBM binding z-score of `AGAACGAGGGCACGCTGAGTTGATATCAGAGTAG` and report it.
Reply: 2.05

Ask: Look up PBM binding z-score of `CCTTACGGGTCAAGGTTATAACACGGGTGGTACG` and report it.
Reply: 5.02

====

Quick list: PBM binding z-score per entry.
test system: PPARa:RXRa (NR concentration 270 nM, RXRa partner concentration 90 nM); test: PBM binding z-score (relative to random genomic background probes); higher = stronger binding; sequences stand for … in GC…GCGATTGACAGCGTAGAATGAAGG
Form: value (number only, do not type unit).

# annotated cases, reported PBM binding z-score shown
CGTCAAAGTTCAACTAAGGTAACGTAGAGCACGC	5.1
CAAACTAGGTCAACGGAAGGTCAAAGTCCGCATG	5.74
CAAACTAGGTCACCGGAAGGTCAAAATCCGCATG	6.21
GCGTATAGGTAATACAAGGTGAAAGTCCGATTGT	1.37
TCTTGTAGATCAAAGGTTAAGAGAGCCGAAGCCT	4.75
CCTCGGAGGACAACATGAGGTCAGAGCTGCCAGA	2.38
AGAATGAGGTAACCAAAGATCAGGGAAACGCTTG	1.21
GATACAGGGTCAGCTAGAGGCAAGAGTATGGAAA	4.69
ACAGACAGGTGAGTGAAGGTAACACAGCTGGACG	0.307
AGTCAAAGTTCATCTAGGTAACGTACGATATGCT	5.05

Ask: Look up PBM binding z-score of `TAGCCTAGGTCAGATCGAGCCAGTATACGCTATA` and report it.
Reply: 1.42

Ask: Look up PBM binding z-score of `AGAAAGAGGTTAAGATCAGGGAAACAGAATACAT` and report it.
Reply: 3.66

Ask: Look up PBM binding z-score of `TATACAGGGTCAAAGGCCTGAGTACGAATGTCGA` and report it.
Reply: 5.81

Ask: Look up PBM binding z-score of `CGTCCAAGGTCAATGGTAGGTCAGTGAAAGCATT` and report it.
Reply: 5.14

Ask: Look up PBM binding z-score of `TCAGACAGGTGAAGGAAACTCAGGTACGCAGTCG` and report it.
Reply: 1.05

Ask: Look up PBM binding z-score of `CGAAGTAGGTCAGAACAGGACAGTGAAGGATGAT` and report it.
Reply: 3.32

Ask: Look up PBM binding z-score of `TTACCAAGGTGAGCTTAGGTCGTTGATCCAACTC` and report it.
Reply: 1.05

Ask: Look up PBM binding z-score of `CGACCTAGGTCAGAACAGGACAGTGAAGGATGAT` and report it.
Reply: 2.08

Ask: Look up PBM binding z-score of `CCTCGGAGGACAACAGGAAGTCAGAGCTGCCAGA` and report it.
Reply: -0.671

Ask: Look up PBM binding z-score of `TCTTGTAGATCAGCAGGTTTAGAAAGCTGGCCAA` and report it.
Reply: 0.117

Ask: Look up PBM binding z-score of `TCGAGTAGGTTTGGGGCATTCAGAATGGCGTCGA` and report it.
Reply: 0.0771

Ask: Look up PBM binding z-score of `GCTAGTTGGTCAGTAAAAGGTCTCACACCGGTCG` and report it.
Reply: 0.0782

Ask: Look up PBM binding z-score of `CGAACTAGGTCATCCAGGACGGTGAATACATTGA` and report it.
Reply: 4.85

Ask: Look up PBM binding z-score of `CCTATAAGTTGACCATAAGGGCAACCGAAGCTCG` and report it.
Reply: 0.93

Ask: Look up PBM binding z-score of `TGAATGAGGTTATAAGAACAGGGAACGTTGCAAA` and report it.
Reply: 2.32

Ask: Look up PBM binding z-score of `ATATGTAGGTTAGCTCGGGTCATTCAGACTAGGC` and report it.
Reply: 4.08

Ask: Look up PBM binding z-score of `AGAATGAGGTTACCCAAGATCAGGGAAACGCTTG` and report it.
Reply: 3.05

Ask: Look up PBM binding z-score of `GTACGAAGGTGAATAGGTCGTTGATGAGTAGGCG` and report it.
Reply: 2.15

Ask: Look up PBM binding z-score of `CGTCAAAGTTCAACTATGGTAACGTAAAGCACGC` and report it.
Reply: 4.97

Ask: Look up PBM binding z-score of `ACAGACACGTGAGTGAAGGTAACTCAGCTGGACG` and report it.
Reply: -0.342

Ask: Look up PBM binding z-score of `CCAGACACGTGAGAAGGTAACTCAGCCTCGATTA` and report it.
Reply: -0.534

Ask: Look up PBM binding z-score of `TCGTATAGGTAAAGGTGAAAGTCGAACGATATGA` and report it.
Reply: 2.87

Ask: Look up PBM binding z-score of `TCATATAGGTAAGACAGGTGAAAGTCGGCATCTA` and report it.
Reply: 1.49

====

test system: RARg homodimer (NR concentration 270 nM); assay: PBM binding z-score (relative to random genomic background probes); higher = stronger binding; sequences stand for … in GC…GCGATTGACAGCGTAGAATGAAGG
Each record gets a class by PBM binding z-score: low interval = under 1, middle interval = from 1 up to 4, high interval = 4 and over

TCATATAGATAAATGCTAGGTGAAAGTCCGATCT	low interval
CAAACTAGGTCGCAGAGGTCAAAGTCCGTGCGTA	high interval
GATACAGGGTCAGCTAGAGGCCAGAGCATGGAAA	high interval
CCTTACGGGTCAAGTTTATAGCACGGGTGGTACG	high interval
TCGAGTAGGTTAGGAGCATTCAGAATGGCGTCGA	low interval

Ask: // bin(item) where item = `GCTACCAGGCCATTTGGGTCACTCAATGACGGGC`
Reply: middle interval

Ask: // bin(item) where item = `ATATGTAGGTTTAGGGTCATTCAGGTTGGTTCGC`
Reply: middle interval

====

tested on: VDR homodimer (NR concentration 270 nM); assay: PBM binding z-score (relative to random genomic background probes); higher = stronger binding; sequences stand for … in GC…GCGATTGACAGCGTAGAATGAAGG
measured-attribute: PBM binding z-score
Form: value (number only, do not type unit).

# annotated cases, reported PBM binding z-score shown
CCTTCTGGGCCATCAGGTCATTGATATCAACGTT	1.83
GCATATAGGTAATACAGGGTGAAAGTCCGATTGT	0.239
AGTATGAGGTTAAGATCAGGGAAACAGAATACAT	0.755
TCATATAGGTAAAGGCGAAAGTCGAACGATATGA	-0.251
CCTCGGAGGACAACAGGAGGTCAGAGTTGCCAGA	1.5

Ask: Look up PBM binding z-score of `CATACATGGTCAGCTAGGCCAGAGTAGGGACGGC` and report it.
Reply: -1.02

Ask: Look up PBM binding z-score of `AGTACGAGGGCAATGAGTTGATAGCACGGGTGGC` and report it.
Reply: 2.98

Ask: Look up PBM binding z-score of `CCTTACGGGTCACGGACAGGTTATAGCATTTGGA` and report it.
Reply: 1.16

Ask: Look up PBM binding z-score of `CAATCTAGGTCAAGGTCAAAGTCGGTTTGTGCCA` and report it.
Reply: 4.3

Ask: Look up PBM binding z-score of `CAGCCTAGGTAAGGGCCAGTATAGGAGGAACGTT` and report it.
Reply: -0.434

Ask: Look up PBM binding z-score of `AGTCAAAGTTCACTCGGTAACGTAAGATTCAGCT` and report it.
Reply: 4.11

Ask: Look up PBM binding z-score of `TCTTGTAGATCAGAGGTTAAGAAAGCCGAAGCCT` and report it.
Reply: 0.103
